From: patent US20070244048A1

# Test Target: rat NMUR2 (rat, UniProt Q9ESQ4 1-395)
# Sequence (Q9ESQ4 whole entry): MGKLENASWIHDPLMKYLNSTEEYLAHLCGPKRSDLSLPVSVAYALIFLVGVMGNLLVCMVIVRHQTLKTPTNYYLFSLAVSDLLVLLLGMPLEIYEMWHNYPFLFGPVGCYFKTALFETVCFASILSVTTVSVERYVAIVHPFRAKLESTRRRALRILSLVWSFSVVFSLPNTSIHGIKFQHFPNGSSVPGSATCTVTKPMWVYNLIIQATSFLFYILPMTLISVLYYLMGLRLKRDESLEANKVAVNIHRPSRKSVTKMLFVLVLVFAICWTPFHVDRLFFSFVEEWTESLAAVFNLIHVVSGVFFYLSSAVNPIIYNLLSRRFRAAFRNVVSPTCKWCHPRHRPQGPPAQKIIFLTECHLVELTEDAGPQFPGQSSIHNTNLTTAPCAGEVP
# Experiment Description: cell-based or functional assay
Starred links: 1 amine or outer side, 2 acyl side, 3 side chain; linkers in the order of their positions; H or OH if unused. Non-standard residues stand in square brackets, D forms with d. No end group written: not given here. *: point of attachment. Ttds = 1-amino-4,7,10-trioxa-13-tridecanamine succinimic acid spacer, O=C(CCC(=O)[*:2])NCCCOCCOCCOCCCN[*:1]; (PEG)2 40 kDa = branched PEG of 40 kDa linked via the Cys side-chain thiol (code C2 = Cys(PEG)2 40 kDa); Succinimide(1-Et,3-yl) = CCN1C(=O)CC(*)C1=O
Readings of EC50 (FLIPR) for the listed binders
Hi! Could you send only the number? It should be in nM, unit omitted.

Some entries whose results are on file:
{"Binder": "Ac-C(Succinimide(1-Et,3-yl))[Ttds]FLFRPRN-NH2 (SMILES CCN1C(=O)CC(SC[C@H](NC(C)=O)C(=O)NCCCOCCOCCOCCCNC(=O)CCC(=O)N[C@@H](Cc2ccccc2)C(=O)N[C@@H](CC(C)C)C(=O)N[C@@H](Cc2ccccc2)C(=O)N[C@@H](CCCNC(=N)N)C(=O)N2CCC[C@H]2C(=O)N[C@@H](CCCNC(=N)N)C(=O)N[C@@H](CC(N)=O)C(N)=O)C1=O) [NMU15]", "EC50 (FLIPR) (nM)": 2.2}
{"Binder": "Ac-C((PEG)2 40 kDa)FQSPFASQSRGYFLFRPRN-NH2 [NMU20]", "EC50 (FLIPR) (nM)": 16.9}
{"Binder": "Ac-C(Succinimide(1-Et,3-yl))GYFLFRPRN-NH2 (SMILES CCN1C(=O)CC(SC[C@H](NC(C)=O)C(=O)NCC(=O)N[C@@H](Cc2ccc(O)cc2)C(=O)N[C@@H](Cc2ccccc2)C(=O)N[C@@H](CC(C)C)C(=O)N[C@@H](Cc2ccccc2)C(=O)N[C@@H](CCCNC(=N)N)C(=O)N2CCC[C@H]2C(=O)N[C@@H](CCCNC(=N)N)C(=O)N[C@@H](CC(N)=O)C(N)=O)C1=O) [NMU6]", "EC50 (FLIPR) (nM)": 1.5}
{"Binder": "GYFLFRPRN-NH2 [NMU3]", "EC50 (FLIPR) (nM)": 1.8}
{"Binder": "Ac-C(Succinimide(1-Et,3-yl))C(Succinimide(1-Et,3-yl))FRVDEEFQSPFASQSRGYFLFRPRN-NH2 [NMU22]", "EC50 (FLIPR) (nM)": 17.1}
{"Binder": "Ac-C((PEG)2 40 kDa)ASQSRGYFLFRPRN-NH2 [NMU18]", "EC50 (FLIPR) (nM)": 63}
{"Binder": "Ac-C(Succinimide(1-Et,3-yl))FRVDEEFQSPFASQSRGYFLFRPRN-NH2 [NMU8]", "EC50 (FLIPR) (nM)": 45.1}

Qu. Can you share its EC50 (FLIPR)? I mean this binder: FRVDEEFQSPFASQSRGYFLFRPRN-NH2 (not fully specified (N-terminus)) [NMU1]
Ans. 71.7
